assay: Pharmacokinetics after oral administration in dogs; format: in vivo, beagle dogs; details: dog, plasma; male beagle dogs, single oral administration, Mean
OUTCOME MEASURE: Cmax (ng/mL)
The answer is to be given in ng/mL; state only the numeric part.

Can you look up the measured Cmax of CCN1[C@@H](C(=O)NC23CCC(C(=O)O)(CC2)CC3)[C@H](c2cccc(Cl)c2F)[C@]2(C(=O)Nc3cc(Cl)ccc32)C12CCCCC2 [APG-115 hydrate] for me?
136

====

assay: Pharmacokinetics after oral administration in dogs; type: in vivo, beagle dogs; settings: dog, plasma; male beagle dogs, single oral administration, Mean
OUTCOME MEASURE: half-life (days)
The answer is to be given in days; state only the numeric part.

Can you look up the measured half-life of CCN1[C@@H](C(=O)NC23CCC(C(=O)O)(CC2)CC3)[C@H](c2cccc(Cl)c2F)[C@]2(C(=O)Nc3cc(Cl)ccc32)C12CCCCC2 [APG-115 hydrate] for me?
14.4
